Some compounds, each annotated with its measured normalized growth.
Experiment: chemical genetic growth profiling, strain panel (AID 1159580);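 further: tested at 20 µM; growth read once vehicle control cultures reached saturation at 30 °C; 1 = growth at the plate median or of vehicle wells; lower values mean less growth of the strain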
Conditions: S. cerevisiae deletion strains, growth OD, locus YJR075W, strain HOC1, hits give low values
Among all 5,500 compounds or so, about 2,000 (36%) were called active. Roughly 18% stayed inconclusive and do not appear here. This is one part of the list.
Please reply with the value in numeric form only.

Would you please look over these solved cases?
COc1cc(/C=C2/SC(=S)NC2=O)cc(OC)c1OC
0.822
COc1cc2c(cc1OC)-c1c(oc3c4c(ccc3c1=O)OC(C(C)C)C4)CO2 (stereo not drawn)
0.971
CCCCCN(CCCCC)C(=O)C(CCC(=O)O)NC(=O)c1ccc(Cl)c(Cl)c1 (stereo not drawn)
1.02
CC(=O)C1C(=O)CC(c2ccc(Cl)cc2)CC1=O (stereo not drawn)
0.444
CC1=NN(c2cccc(S(N)(=O)=O)c2)C(=O)C1
1.03

INPUT: Recall and state the measured normalized growth for `CC1(C)C=Cc2cc3ccc(=O)oc3cc2O1` .
OUTPUT: 0.941

INPUT: Recall and state the measured normalized growth for CNS(=O)(=O)c1cc(Br)ccc1S(=O)c1ccccc1C(=O)O (stereo not drawn) .
OUTPUT: 0.997

INPUT: Recall and state the measured normalized growth for `COC(=O)CSCCc1nc(-c2ccc([N+](=O)[O-])cc2)cs1` .
OUTPUT: 0.946

INPUT: Recall and state the measured normalized growth for `O=C1CC2(CCCC2)C(=O)N1CCNc1nccc(C(F)(F)F)n1` .
OUTPUT: 0.97

INPUT: Recall and state the measured normalized growth for `N#Cc1sccc1Br` .
OUTPUT: 1.03

INPUT: Recall and state the measured normalized growth for `CC(C)(C)C1=NN(c2ccccc2)C(=O)C1` .
OUTPUT: 0.939

INPUT: Recall and state the measured normalized growth for `COc1ccc([C@H]2COc3c(ccc(O)c3OC)C2)c(OC)c1O` .
OUTPUT: 0.969

INPUT: Recall and state the measured normalized growth for `CCNc1nc(Cl)nc(NCC)n1` .
OUTPUT: 0.998

INPUT: Recall and state the measured normalized growth for `COc1cc(-c2oc3cc(O)ccc3c(=O)c2O)cc(OC)c1OC` .
OUTPUT: 1.01

INPUT: Recall and state the measured normalized growth for `CN(C)CCc1c[nH]c2ccc(CS(=O)(=O)N3CCCC3)cc12` .
OUTPUT: 1

INPUT: Recall and state the measured normalized growth for `O=C(O)c1nccnc1C(=O)O` .
OUTPUT: 0.988

INPUT: Recall and state the measured normalized growth for C1CCC(C(CC2CCCCN2)C2CCCCC2)CC1 (stereo not drawn) .
OUTPUT: 0.606

INPUT: Recall and state the measured normalized growth for `O=C(COC(=O)c1ccccc1C(=O)c1ccccc1)c1ccccc1` .
OUTPUT: 0.957

INPUT: Recall and state the measured normalized growth for `O=c1oc2c(O)c(O)cc3c(=O)oc4c(O)c(O)cc1c4c23` .
OUTPUT: 0.684

Reference source: PubChem BioAssay AID1159580
